- Target entity: Dual specificity protein phosphatase 6 (Homo sapiens)
- Assay overview: Primary imaging screen for DUSP6 inhibitors that restore phospho-Erk in transfected HeLa cells, chemical complementation (AID 609);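 further: phospho-Erk level distribution per well compared with pooled transfected vehicle control wells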
- Condition notes: HeLa MKP-3 transfected, phospho-Erk imaging KS statistic, at 10 µM, active compounds read high
Entries and their inhibition values follow.
Property measured: inhibition (%)

INSERT INTO assay_data (molecule, property_measured, measured_number) VALUES
  ('c1ccc2c(c1)[nH]c1cnccc12', 'inhibition', -10.4),
  ('CCOC(C(=O)OCC(O)CN(CC)CC)(c1ccccc1)c1ccccc1 (stereo not drawn)', 'inhibition', -5.89),
  ('O=c1[nH]c(=O)n(Cc2ccco2)c(O)c1C=NCc1ccc2c(c1)OCO2', 'inhibition', -8.76),
  ('COc1ccc(Cc2nccc3cc(OC)c(OC)cc23)cc1OC', 'inhibition', 9.37),
  ('Cc1ccc(-n2c(O)c(C=NCCN3CCOCC3)c(=O)[nH]c2=O)cc1', 'inhibition', 6.04),
  ('C=CCn1c(O)c(C=NCCN(C)C)c(=O)[nH]c1=O', 'inhibition', 19.3),
  ('CCOc1ccc(-n2c(O)c(C=Nc3ccc(N(CC)CC)cc3)c(=O)[nH]c2=O)cc1', 'inhibition', 14),
  ('C=C1CC[C@@]2(O)[C@H]3Cc4ccc(O)c5c4[C@@]2(CCN3CC2CC2)[C@H]1O5', 'inhibition', 14.6),
  ('CCCc1nc2ccccc2c(=O)n1-c1ccccc1OC', 'inhibition', -4.78),
  ('CN1CCc2c(c(N3CCCCC3)nc3n[nH]c(N)c23)C1', 'inhibition', 21.4),
  ('C=CCOC(=O)C1=C(C)OC(N)=C(C#N)[C@@]12C(=O)N(CC(N)=O)c1ccccc12', 'inhibition', 2.71),
  ('CCOCCN1CCC(OC(C)=O)C(C)C1 (stereo not drawn)', 'inhibition', -6.86),
  ('COc1ccc(C2SCC(=O)Nc3c2c(=O)[nH]n3C2CCCCCC2)cc1 (stereo not drawn)', 'inhibition', 2.71),
  ('C[C@H]1CCCC(=O)CCCCCc2cc(O)cc(O)c2C(=O)O1', 'inhibition', 29.1),
  ('O=c1[nH]c2ccccc2n1CCCN1CCC(n2c(=O)[nH]c3cc(Cl)ccc32)CC1', 'inhibition', 12.4),
  ('Cn1c(O)c(C(=O)c2ccccc2Cl)c(=O)n(C)c1=O', 'inhibition', 5.57),
  ('O=c1[nH]c(=O)n(Cc2ccco2)c(O)c1C=NCCCn1ccnc1', 'inhibition', -0.584),
  ('COP(=O)(OC)C(O)C(Cl)(Cl)Cl (stereo not drawn)', 'inhibition', 23.4),
  ('CNC(=O)N(C)c1nnc(C(C)(C)C)s1', 'inhibition', 11.9),
  ('COc1ccc2[nH]cc(CCN(C)C)c2c1', 'inhibition', 3.59),
  ('CN1CCC(OC(=O)C2c3ccccc3Oc3ccccc32)CC1', 'inhibition', -3.5),
  ('O=P(c1ccccc1)(c1ccccc1)N1CCCCC1', 'inhibition', 18.9),
  ('CN(C)[C@@H]1C(=O)C(C(N)=O)=C(O)[C@@]2(O)C(=O)C3=C(O)c4c(O)cccc4[C@@](C)(O)[C@H]3C[C@@H]12', 'inhibition', 21.2);
